measured_on: His6‐FraB (Salmonella FraB deglycase) (Salmonella enterica subsp. enterica serovar Typhimurium, UniProt Q8ZLD0)
Sequence (Q8ZLD0 entry or part of it): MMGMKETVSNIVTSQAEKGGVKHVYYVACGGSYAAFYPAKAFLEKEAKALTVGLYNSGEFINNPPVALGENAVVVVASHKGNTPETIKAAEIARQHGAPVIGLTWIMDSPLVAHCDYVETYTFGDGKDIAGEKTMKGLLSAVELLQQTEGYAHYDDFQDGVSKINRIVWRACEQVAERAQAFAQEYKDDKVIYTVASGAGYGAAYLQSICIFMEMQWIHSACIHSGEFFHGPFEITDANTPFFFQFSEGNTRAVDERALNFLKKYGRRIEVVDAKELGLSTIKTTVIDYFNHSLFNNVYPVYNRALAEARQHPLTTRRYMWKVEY
assay_protocol: FraB-G6PD coupled assay, Michaelis–Menten analysis for K I and mode of inhibition
Format: biochemical
test_settings: from Michaelis–Menten analysis of FraB at different inhibitor concentrations; average and standard error from two measurements; read-out: K I
endpoint_label: Ki (µM)

compound: CC(C)Cc1cc(-c2nn3c(-c4ccccc4Cl)nnc3s2)n[nH]1
display_unit: µM
data_value: 10.5
//
compound: Cc1cccc(Cl)c1-n1sc(=O)n(CC2CC2)c1=O
display_unit: µM
data_value: 4
//
compound: O=c1sn(-c2ccccc2C(F)(F)F)c(=O)n1CC1CC1
display_unit: µM
data_value: 1
//
compound: c1ccc(-c2nnc3sc(C4COc5ccccc5O4)nn23)nc1 (centres unmarked)
display_unit: µM
data_value: 28.5
//
compound: O=c1[nH][nH]c(=S)n1Cc1ccccc1
display_unit: µM
data_value: 12

====

measured_on: His6‐FraB (Salmonella FraB deglycase) (Salmonella enterica subsp. enterica serovar Typhimurium)
assay_protocol: FraB-G6PD coupled assay, Michaelis–Menten analysis for K I and mode of inhibition
Format: biochemical
test_settings: Trial 2; 6-P-F-Asp 125 µM, S/Km 2.97619; unit from Fig. S11 axis; read-out: IC50 (IC50 versus [S]/Km plots)
endpoint_label: IC50

molecule: c1ccc(-c2nnc3sc(C4COc5ccccc5O4)nn23)nc1 (centres unmarked) [3469:F02]
data_value: 49.2 µM
//
molecule: O=c1[nH][nH]c(=S)n1Cc1ccccc1 [1533:K12]
data_value: 24 µM
//
molecule: Cc1cccc(Cl)c1-n1sc(=O)n(CC2CC2)c1=O [1524:E12]
data_value: 5.0178 µM
//
molecule: CC(C)Cc1cc(-c2nn3c(-c4ccccc4Cl)nnc3s2)n[nH]1 [3470:A09]
data_value: 11.4 µM
//
molecule: O=c1sn(-c2ccccc2C(F)(F)F)c(=O)n1CC1CC1 [1524:G12]
data_value: 1.36 µM

====

measured_on: His6‐FraB (Salmonella FraB deglycase) (Salmonella enterica subsp. enterica serovar Typhimurium)
assay_protocol: FraB-G6PD coupled assay, Michaelis–Menten analysis for K I and mode of inhibition
Type: biochemical
test_settings: IC50 (IC50 versus [S]/Km plots), Trial 1; 6-P-F-Asp 750 µM, S/Km 17.85714; unit from Fig. S11 axis

substance_smiles: Fc1ccc(-c2nn3c(-c4ccccn4)nnc3s2)cc1
IC50 [µM]: 33.4

====

measured_on: His6‐FraB (Salmonella FraB deglycase) (Salmonella enterica subsp. enterica serovar Typhimurium)
assay_protocol: FraB-G6PD coupled assay, Michaelis–Menten analysis for K I and mode of inhibition
Assay type: biochemical
test_settings: Fig. S12
endpoint_label: slope in plots of 1/IC50 vs. v o/V max

compound: Fc1ccc(-c2nn3c(-c4ccccn4)nnc3s2)cc1 [3469:N17]
data_value: weakly positive

compound: Cc1cccc(Cl)c1-n1sc(=O)n(CC2CC2)c1=O [1524:E12]
data_value: no

compound: O=c1sn(-c2ccccc2C(F)(F)F)c(=O)n1CC1CC1 [1524:G12]
data_value: no

compound: CC(C)Cc1cc(-c2nn3c(-c4ccccc4Cl)nnc3s2)n[nH]1 [3470:A09]
data_value: weakly positive

compound: O=c1[nH][nH]c(=S)n1Cc1ccccc1 [1533:K12]
data_value: weakly positive
